System: Alternaria solani
Assay: In vivo preventive test on Alternaria solani (tomato)
Conditions: 500 ppm of active ingredient, evaluated 7 days after inoculation
READOUT_TYPE: Efficacy (%)
Quick note: give the figure in %, leave out the unit.

Reference set, count: 4
COMPOUND: Cn1nc(C(F)F)c(C(=O)N(C2CC2)C2CCCCC2c2ccccc2Cl)c1F (stereo not drawn) [Example 216]
READOUT_TYPE: Efficacy
RECORDED_RESULT: 71

COMPOUND: CC(CNC(=O)c1c(C(F)F)nn(C)c1Cl)c1ccc(Cl)cc1Cl (stereo not drawn) [Example 85]
READOUT_TYPE: Efficacy
RECORDED_RESULT: 100

COMPOUND: Cn1nc(C(F)F)c(C(=O)N(CC(F)(F)c2cc(Cl)ccc2Cl)C2CC2)c1F [Example 99]
READOUT_TYPE: Efficacy
RECORDED_RESULT: 95

COMPOUND: Cn1nc(C(F)F)c(C(=O)NCC(C)(C)c2ccc(Cl)cc2Cl)c1F [Example 87]
READOUT_TYPE: Efficacy
RECORDED_RESULT: 95

Task: Can you share its Efficacy? I mean this compound: Cn1nc(C(F)F)c(C(=O)NC[Si](C)(C)c2ccc(Cl)cc2Cl)c1Cl [Example 239]
Result: 90

Task: Bench note: what Efficacy did Cc1c(CCNC(=O)c2c(C(F)F)nn(C)c2Cl)sc2ccccc12 [Example 172] show?
Result: 100

Task: Could you share which Efficacy value was measured for Cc1cc(C)c(CCN(C)C(=O)c2c(C(F)F)nn(C)c2F)c(C)c1 [Example 135] ?
Result: 95

Task: Value lookup for Efficacy; key = Cn1nc(C(F)F)c(C(=O)NC2CC2c2ccccc2C(F)(F)F)c1F (stereo not drawn) [Example 225]
Result: 95

Task: Efficacy lookup needed for CCC(NC(=O)c1c(C(F)F)nn(C)c1F)C(OC)c1ccc(Cl)cc1Cl (stereo not drawn) [Example 77] , thanks.
Result: 100

---

Parameter % Inhibition of fungal growth at 50 μM: see the listing below.
Test system: Fusarium graminearum
Experiment: microbe, parasite or virus in culture
Format: cell-based
Conditions: 50 μM
Write the answer as a number in %, unit excluded.

COMPOUND: Cn1nc(C(F)F)c(C(=O)N(C[Si](C)(C)c2ccc(Cl)cc2Cl)C2CC2)c1F
READOUT_TYPE: % Inhibition of fungal growth at 50 μM
ENDPOINT_UNIT: %
RECORDED_RESULT: 100
--
COMPOUND: CC(CNC(=O)c1c(C(F)F)nn(C)c1F)c1cccc(C(F)(F)F)c1 (stereo not drawn)
READOUT_TYPE: % Inhibition of fungal growth at 50 μM
ENDPOINT_UNIT: %
RECORDED_RESULT: 98

Task: Which % Inhibition of fungal growth at 50 μM is reported for this compound? CC(CNC(=O)c1c(C(F)F)nn(C)c1Cl)c1cc(Cl)cc(Cl)c1 (stereo not drawn)
Result: 83

Task: Item Cn1nc(C(F)F)c(C(=O)N(C2CC2)C2CCCC2c2ccccc2Cl)c1F (stereo not drawn) has what recorded % Inhibition of fungal growth at 50 μM?
Result: 100

Task: Given the compound CC(Cc1ccc(Oc2ccccc2)cc1)NC(=O)c1c(C(F)F)nn(C)c1Cl (stereo not drawn) , what is its reported % Inhibition of fungal growth at 50 μM?
Result: 80

Task: I'd like to know its % Inhibition of fungal growth at 50 μM. The compound in question is C#CCOc1cc(C(OC)C(C)NC(=O)c2c(C(F)F)nn(C)c2Cl)ccc1OC (stereo not drawn)
Result: 77

---

Tested on: aflatoxines production
Test: microbe, parasite or virus in culture
Format: cell-based, Aspergillus parasiticus
Conditions: 50 μM
READOUT_TYPE: % Inhibition of Aflatoxin at 50 μM
Dear colleague, please send the value followed by its unit.

These recorded examples may help you get a feel for the data.
COMPOUND: Cn1nc(C(F)F)c(C(=O)NCCc2csc3c2CCCC3)c1Cl
RECORDED_RESULT: 91%
//
COMPOUND: Cn1nc(C(F)F)c(C(=O)NC2CC2c2cccc(F)c2)c1F (stereo not shown)
RECORDED_RESULT: 99%
//
COMPOUND: Cn1nc(C(F)F)c(C(=O)NCCc2ccsc2Br)c1Cl
RECORDED_RESULT: 99%
//
COMPOUND: Cc1c(CCNC(=O)c2c(C(F)F)nn(C)c2F)sc2ccccc12
RECORDED_RESULT: 100%
//
COMPOUND: CN(CCc1ccc(F)cc1)C(=O)c1c(C(F)F)nn(C)c1F
RECORDED_RESULT: 100%
//
COMPOUND: CC(Cc1ccco1)NC(=O)c1c(C(F)F)nn(C)c1Cl (stereo not shown)
RECORDED_RESULT: 89%

Task: Given the entry CN(CCc1ccc(C(C)(C)C)cc1)C(=O)c1c(C(F)F)nn(C)c1F , report its measured % Inhibition of Aflatoxin at 50 μM.
Result: 100%

Task: Return reported % Inhibition of Aflatoxin at 50 μM; argument: CC(Cc1c(F)cccc1F)N(C(=O)c1c(C(F)F)nn(C)c1F)C1CC1 (stereo not shown)
Result: 100%

Task: Looking for the measured % Inhibition of Aflatoxin at 50 μM of Cn1nc(C(F)F)c(C(=O)N(C[Si](C)(C)c2ccsc2)C2CC2)c1Cl , can you help?
Result: 100%

Task: Entry CC(CNC(=O)c1c(C(F)F)nn(C)c1F)c1ccccc1Cl (stereo not shown) : reported % Inhibition of Aflatoxin at 50 μM = ?
Result: 100%

---

Below is a list of entries, each paired with its recorded Efficacy value.
System: Alternaria solani
Assay: In vivo preventive test on Alternaria solani (tomato)
Conditions: 500 ppm of active ingredient, evaluated 7 days after inoculation
Answer with the figure and its unit, nothing else.

Consider the worked cases shown below.
MOLECULE: CC(CNC(=O)c1c(C(F)F)nn(C)c1Cl)c1cccc(Cl)c1 (stereo not drawn)
Efficacy: 100%
//
MOLECULE: Cn1nc(C(F)F)c(C(=O)NC(C)(C)Cc2ccc(Oc3ccccc3)cc2)c1F
Efficacy: 95%
//
MOLECULE: Cn1nc(C(F)F)c(C(=O)NCCc2cc(Cl)cc(Cl)c2)c1Cl
Efficacy: 95%

Task: // fetch Alternaria solani Efficacy for Cn1nc(C(F)F)c(C(=O)NCCc2ccc(Oc3ccccc3)cc2)c1Cl
Result: 95%

Task: Provide value of Efficacy for this record tested with Alternaria solani: CC(Cc1c(F)cccc1F)N(C(=O)c1c(C(F)F)nn(C)c1F)C1CC1 (stereo not drawn)
Result: 100%

Task: Please tell me: Efficacy of CC(Cc1cc(Cl)ccc1Cl)NC(=O)c1c(C(F)F)nn(C)c1Cl (stereo not drawn) , system Alternaria solani?
Result: 100%

---

Experiment: logP by HPLC on reversed-phase column (C 18), EEC Directive 79/831 Annex V.A8
Assay type: physicochemical
Documented logP across a set of molecules
Reply briefly: the number, and no unit.

Known logP results, listed for orientation:
MOLECULE: COCCN(CCc1ccccn1)C(=O)c1c(C(F)F)nn(C)c1F
logP: 0.50
--
MOLECULE: CC(CNC(=O)c1c(C(F)F)nn(C)c1F)c1ccccc1Cl (stereo not shown)
logP: 2.94
--
MOLECULE: COCCN(CCc1ccncc1)C(=O)c1c(C(F)F)nn(C)c1F
logP: 1.56

Task: Data request, read-out logP, for CN(CCc1cc(Cl)ccc1Cl)C(=S)c1c(C(F)F)nn(C)c1F
Result: 3.87

---

Listed below: logP values for each entry.
Experiment: logP by HPLC on reversed-phase column (C 18), EEC Directive 79/831 Annex V.A8
Assay type: physicochemical

Example entries begin here.
COMPOUND: Cn1nc(C(F)F)c(C(=S)NCCc2ccc(Cl)cc2Cl)c1Cl [Example 72]
READOUT_TYPE: logP
RECORDED_RESULT: 4.11
--
COMPOUND: Cn1nc(C(F)F)c(C(=O)NCC(C)(C)c2ccc(Oc3ccccc3)cc2)c1F [Example 157]
READOUT_TYPE: logP
RECORDED_RESULT: 4.06

Shifting focus to the compound that follows.
Task: Field request: logP | item: Cn1nc(C(F)F)c(C(=O)NCC(C)(C)c2cc(Cl)ccc2Cl)c1Cl [Example 101]
Result: 3.89
